# subjectOfTest: α-amylase from porcine pancreas (Sus scrofa)
# Construct: A saline suspension of α-amylase from porcine pancreas; purchased Sigma Aldrich (Steinheim, Germany) Lot #SLBN9170V (catalogue number not given); host or cells: porcine pancreas (tissue-derived)
# Sequence (P00690 16-511): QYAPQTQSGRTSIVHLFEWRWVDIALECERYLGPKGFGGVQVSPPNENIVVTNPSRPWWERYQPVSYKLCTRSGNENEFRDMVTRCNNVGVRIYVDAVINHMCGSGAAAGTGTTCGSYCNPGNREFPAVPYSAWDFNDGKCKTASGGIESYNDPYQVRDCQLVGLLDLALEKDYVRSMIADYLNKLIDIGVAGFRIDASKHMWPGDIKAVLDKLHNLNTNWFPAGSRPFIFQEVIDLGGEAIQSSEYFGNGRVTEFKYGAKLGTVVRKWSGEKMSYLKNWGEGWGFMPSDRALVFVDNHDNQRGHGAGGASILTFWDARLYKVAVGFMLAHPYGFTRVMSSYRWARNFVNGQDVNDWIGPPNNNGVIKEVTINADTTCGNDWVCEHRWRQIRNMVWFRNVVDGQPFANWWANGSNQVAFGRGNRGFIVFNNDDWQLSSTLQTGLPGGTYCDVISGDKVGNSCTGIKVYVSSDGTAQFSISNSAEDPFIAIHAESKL
# protocolSummary: α-amylase enzyme activity assay, GalG2CNP conversion, UV/Vis detection of CNP at 405 nm
# Format: biochemical
# particulars: (i) global fit, mixed inhibition Equation (4); read-out: Kiu
measure: Ki (µM)

Consider the worked cases shown below.
compound | Ki [µM]
OC[C@H]1O[C@@H](Oc2cc3c(O)cc(O)cc3[o+]c2-c2cc(O)c(O)c(O)c2)[C@H](O)[C@@H](O)[C@@H]1O [Dpd-glc, delphinidin-3-glucoside] | 204
OC[C@H]1O[C@@H](Oc2cc3c(O)cc(O)cc3[o+]c2-c2ccc(O)c(O)c2)[C@H](O)[C@@H](O)[C@@H]1O [Cyd-glc, cyanidin-3-glucoside] | 184

A: OC[C@H]1O[C@@H](Oc2cc3c(O)cc(O)cc3[o+]c2-c2ccc(O)cc2)[C@H](O)[C@@H](O)[C@@H]1O [Plg-glc, pelargonidin-3-glucoside]
B: COc1cc(-c2[o+]c3cc(O)cc(O)c3cc2O[C@@H]2O[C@H](CO)[C@@H](O)[C@H](O)[C@H]2O)ccc1O [Peo-glc, peonidin-3-glucoside]
// query Between the entries labeled A and B , whose measured Ki is lower? Response format: the label of the selected entry.
// result A
(A: 151 µM, B: 258 µM)

The measured values listed here are drawn from paper PMC7142633.
